PBM binding z-score for assorted sequences
tested on: PPARg homodimer (NR concentration 180 nM); test: PBM binding z-score (relative to random genomic background probes); higher = stronger binding; sequences stand for … in GC…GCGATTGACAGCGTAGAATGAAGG
// return just the number, without any unit appended

Look over these answered cases.
                       sequence_chain         test_readout  experimental_value
0  CCTTACGGATCAAGGTTATAGCACGGGTGGTACG  PBM binding z-score               0.562
1  AGTCAAAGTTCACTAGGTACCGTAAGATTCAGCT  PBM binding z-score                2.63
2  TTACGAAGGTGAAGGTCGTTGATCCCTCTGTAGA  PBM binding z-score               0.462
3  TCATATAGGTAAATGCTAGGTGAAAGCCCGATCT  PBM binding z-score               0.598

Would you kindly look at the next entry?
Input line: Find the recorded PBM binding z-score belonging to `ACGAGTTGGTCAGCTGAGGTCACACACAATTCGG` and report it.
Output line: 2.66

----------
tested on: PPARg:RXRa (NR concentration 180 nM, RXRa partner concentration 90 nM); experiment: PBM binding z-score (relative to random genomic background probes); higher = stronger binding; sequences stand for … in GC…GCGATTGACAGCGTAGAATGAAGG
Answer FALSE if PBM binding z-score is under 0.8, and TRUE if it is 0.8 or more.

The following sequences have reported results that may help.
>>> print(df.to_string())
                       sequence_chain  class_name
0  TAGCCTAGGTCAGATCGGGCCTGTATACGCTATA       FALSE
1  GCTCGGAGGACAAGGTCAGAACTTTGTCCGTAGA       FALSE
2  GCAGACAGGTGAAACGCATGTAACTCAGGGTGGC        TRUE
3  CAAACCAGGTCAAGGTCAAAGTCGGTTTGTGCCA        TRUE

Please examine the following record next.
Input line: Does the reported PBM binding z-score for `TCTCGTAGGACACGAAGGTCAGAGCTTTCCAGAG` fall at or above the 0.8 mark?
Output line: FALSE

----------
test system: PPARg homodimer (NR concentration 180 nM); experiment: PBM binding z-score (relative to random genomic background probes); higher = stronger binding; sequences stand for … in GC…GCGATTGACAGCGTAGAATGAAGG
Answer Not satisfied if PBM binding z-score is under 0.5, and Satisfied if it is 0.5 or more.

The following sequences have reported results that may help.
                       sequence_chain     class_name
0  CCTTACGGGTCACTAGGTTATAGCACGACGAGCG      Satisfied
1  TCGAGTAGGTTACCAATGGGGCATTTAGCTTTCT  Not satisfied

Input line: Does the reported PBM binding z-score for `CCTACTGGGCCAAGGTCAGTGATCAGTCAAAGCA` fall at or above the 0.5 mark?
Output line: Satisfied

Input line: Does the reported PBM binding z-score for `TTCCCAAGGTGAAGGTCGTTGATCCCTCTGTAGA` fall at or above the 0.5 mark?
Output line: Satisfied

Input line: Does the reported PBM binding z-score for `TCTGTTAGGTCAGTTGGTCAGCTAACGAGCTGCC` fall at or above the 0.5 mark?
Output line: Satisfied

Input line: Does the reported PBM binding z-score for `AATACAGGGTCTTCGTAGGCCAGAGTACGCACAG` fall at or above the 0.5 mark?
Output line: Not satisfied

Input line: Does the reported PBM binding z-score for `ACTGACAGGTGATGAAGGTAACTCAGGCTATCAT` fall at or above the 0.5 mark?
Output line: Not satisfied
